- procedureSummary: Binding affinity against human Elastase for more active diasteriomer
Peptide text beside a SMILES is read from it. * marks the point of attachment. Cbz = O=C(OCc1ccccc1)*; Boc = CC(C)(C)OC(=O)*; CF3 = FC(F)(F)*
parameter: Ki (nM)

Completed entries (count: 3):
# compound, unitText, resultValue
data = [
    ("CCOC(=O)C(F)(F)C(=O)[C@@H](NC(=O)[C@@H]1CCCN1C(=O)[C@H](C)NC(=O)[C@H](C)NC(=O)CCC(=O)OC)C(C)C", "nM", 4300),
    ("COC(=O)C(=O)[C@H](C)NC(=O)[C@@H]1CCCN1C(=O)[C@H](C)NC(=O)[C@@H]1CCCN1C(C)=O", "nM", 850),
    ("CC(C)[C@H](NC(=O)[C@@H]1CCCN1C(=O)[C@H](C)NC(=O)[C@H](C)NC(=O)OC(C)(C)C)C(=O)C(F)(F)F (Boc-AAPV-CF3)", "nM", 44),
]

[a] CC(C)[C@H](NC(=O)[C@@H]1CCCN1C(=O)[C@H](C)NC(=O)[C@H](C)NC(=O)OCc1ccccc1)C(=O)C(F)(F)F (Cbz-AAPV-CF3)
[b] COC(=O)CCC(=O)NCCCC[C@H](NS(=O)(=O)C12CC3CC(CC(C3)C1)C2)C(=O)N1CCC[C@H]1C(=O)N[C@H](C(=O)C(F)(F)F)C(C)C
q: Lab note: check whether a or b has the lower measured Ki. I would appreciate it if you answered with the label of your choice.
a: b
(b: 0.58 nM, a: 1 nM)
